Test: Cytotoxicity against mouse RAW264 cells after 2 hrs by WST reagent-based microplate reader analysis
Format: cell-based
Details: raw264, 2 h
property name: Activity

[
  {
    "compound": "C=C1C(=O)[C@@]23[C@H](O)C[C@@H]4[C@@](C)(CO)CCC[C@@]4(C)[C@@H]2C[C@H](OC(C)=O)[C@@H]1[C@H]3O",
    "property name": "Activity",
    "result": "Toxic"
  },
  {
    "compound": "C=C1C(=O)[C@@]23[C@H](O)C[C@@H]4[C@@](C)(CO)CCC[C@@]4(C)[C@@H]2C[C@H](O)[C@@H]1[C@H]3O [RABDOKUNMIN C]",
    "property name": "Activity",
    "result": "Toxic"
  },
  {
    "compound": "C=C1C(=O)[C@@]23[C@@H]4OC(C)(C)O[C@@H]2C[C@@H]2[C@@](C)(COC(C)=O)CCC[C@@]2(C)[C@@H]3C[C@H](O)[C@@H]14",
    "property name": "Activity",
    "result": "Toxic"
  },
  {
    "compound": "C=C1C(=O)[C@@]23[C@@H]4OC(C)(C)O[C@@H]2C[C@@H]2[C@@](C)(COC(C)=O)CCC[C@@]2(C)[C@@H]3C[C@H](OC(C)=O)[C@@H]14",
    "property name": "Activity",
    "result": "Toxic"
  },
  {
    "compound": "C=C1C(=O)[C@@]23[C@H](O)C[C@H]4[C@@](C)(CCC[C@]4(C)C=O)[C@@H]2C[C@H](OC(C)=O)[C@@H]1[C@H]3O",
    "property name": "Activity",
    "result": "Toxic"
  },
  {
    "compound": "C=C1C(=O)[C@@]23[C@H](O)C[C@@H]4[C@@](C)(COC(C)=O)CCC[C@@]4(C)[C@@H]2C[C@H](OC(C)=O)[C@@H]1[C@H]3O",
    "property name": "Activity",
    "result": "Toxic"
  },
  {
    "compound": "C=C1C(=O)[C@@]23[C@H](O)C[C@H]4[C@@](C)(CCC[C@]4(C)C(=O)O)[C@@H]2C[C@H](OC(C)=O)[C@@H]1[C@H]3O",
    "property name": "Activity",
    "result": "Toxic"
  },
  {
    "compound": "C=C1C(=O)[C@@]23[C@@H]4OC(C)(C)O[C@@H]2C[C@@H]2[C@@](C)(COC(=O)C(F)(F)F)CCC[C@@]2(C)[C@@H]3C[C@H](OC(=O)C(F)(F)F)[C@@H]14",
    "property name": "Activity",
    "result": "Toxic"
  },
  {
    "compound": "C[C@H]1C(=O)[C@@]23[C@H](O)C[C@@H]4[C@@](C)(CO)CCC[C@@]4(C)[C@@H]2C[C@H](O)[C@@H]1[C@H]3O",
    "property name": "Activity",
    "result": "Toxic"
  },
  {
    "compound": "C=C1C(=O)[C@@]23[C@@H]4OC(C)(C)O[C@@H]2C[C@@H]2[C@@](C)(CO)CCC[C@@]2(C)[C@@H]3C[C@H](O)[C@@H]14",
    "property name": "Activity",
    "result": "Toxic"
  },
  {
    "compound": "C=C1C(=O)[C@@]23[C@H](O)C[C@@H]4[C@@](C)(CO)CCC[C@@]4(C)[C@@H]2C=C[C@@H]1[C@H]3O",
    "property name": "Activity",
    "result": "Toxic"
  },
  {
    "compound": "C=C1C(=O)[C@@]23[C@@H]4OC(C)(C)O[C@@H]2C[C@@H]2[C@@](C)(CO)CCC[C@@]2(C)[C@@H]3C=C[C@@H]14",
    "property name": "Activity",
    "result": "Toxic"
  }
]
